Hi there, I'd appreciate the recorded IC50 for every entry that follows.
Quick note: give the figure in µM, leave out the unit.

Task: State measured IC50 of the molecule CCC(=O)CCCCC[C@H](NC(=O)C1CN(C)C1)c1[nH]c(-c2ccccc2)nc1C(N)=O with Histone deacetylase 8 (Homo sapiens).
Sequence (Q9BY41 whole entry): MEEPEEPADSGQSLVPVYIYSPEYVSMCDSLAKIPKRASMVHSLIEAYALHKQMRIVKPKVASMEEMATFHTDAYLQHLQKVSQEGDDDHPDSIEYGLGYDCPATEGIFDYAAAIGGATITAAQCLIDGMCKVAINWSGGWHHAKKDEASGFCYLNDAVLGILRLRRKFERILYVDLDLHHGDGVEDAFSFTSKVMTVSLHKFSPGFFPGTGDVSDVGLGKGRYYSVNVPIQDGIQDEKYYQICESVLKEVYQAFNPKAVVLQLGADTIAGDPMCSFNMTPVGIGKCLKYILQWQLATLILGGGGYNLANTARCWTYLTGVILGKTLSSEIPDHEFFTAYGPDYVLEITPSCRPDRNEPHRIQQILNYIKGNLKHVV
Output: 5.42

Task: Give measured IC50 for CCC(=O)CCCCC[C@H](NC(=O)[C@H]1CC12CCN(C)CC2)c1[nH]c(-c2ccc(F)cc2F)nc1C#N (Histone deacetylase 8 (Homo sapiens)).
Output: 20.7

Task: State IC50 on Histone deacetylase 8 (Homo sapiens). Entry: CCC(=O)CCCCC[C@H](NC(=O)[C@H]1CC12CCN(C)CC2)c1[nH]c(-c2ccc(C(F)(F)F)cc2)nc1C#N
Output: 19.2

Task: Give the observed IC50 of CCC(=O)CCCCC[C@H](NC(=O)C12CCN(CC1)CC2)c1[nH]c(-c2ccc(F)cc2)nc1C#N for Histone deacetylase 8 (Homo sapiens).
Output: 6.93

Task: Please respond with reported IC50 (system Histone deacetylase 8 (Homo sapiens)) for CCC(=O)CCCCC[C@H](NC(=O)C1CN(C)C1)c1[nH]c(-c2ccc(F)cc2)nc1C#N .
Output: 19.7

###

readout-label: IC50 (nM)
Response body: numeric value in nM, unit text excluded.

Task: State measured IC50 of the molecule CCC(=O)CCCCC[C@H](NC(=O)C1CN(C)C1)c1[nH]c(-c2ccc(F)cc2)nc1C#N with Histone deacetylase 3 (Homo sapiens, UniProt O15379).
Sequence (O15379 whole entry): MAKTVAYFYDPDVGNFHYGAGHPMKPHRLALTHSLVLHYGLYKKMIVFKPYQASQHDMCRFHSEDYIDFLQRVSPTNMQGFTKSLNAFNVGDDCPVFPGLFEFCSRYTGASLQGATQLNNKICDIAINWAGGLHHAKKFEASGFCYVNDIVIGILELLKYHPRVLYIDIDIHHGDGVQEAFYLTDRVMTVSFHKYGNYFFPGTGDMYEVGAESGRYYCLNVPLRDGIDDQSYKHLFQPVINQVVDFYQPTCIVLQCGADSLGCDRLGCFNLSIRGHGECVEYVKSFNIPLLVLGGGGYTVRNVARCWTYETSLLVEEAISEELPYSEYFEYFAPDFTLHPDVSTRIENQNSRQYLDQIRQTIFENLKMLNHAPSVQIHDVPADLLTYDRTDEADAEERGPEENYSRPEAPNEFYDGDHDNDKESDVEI
Output: 13.8

Task: Recall the reported IC50 of CCC(=O)CCCCC[C@H](NC(=O)c1ccon1)c1[nH]c(-c2ccc(F)cc2)nc1C#N on Histone deacetylase 3 (Homo sapiens, UniProt O15379) and write it down.
Output: 12.1

Task: Fetch value of IC50 on Histone deacetylase 3 (Homo sapiens, UniProt O15379) for CCC(=O)CCCCC[C@H](NC(=O)[C@H]1CC12CCN(CC)CC2)c1[nH]c(-c2ccc(F)cc2)nc1C#N .
Output: 1.8

Task: Return reported IC50 for target or system Histone deacetylase 3 (Homo sapiens, UniProt O15379), item CCC(=O)CCCCC[C@H](NC(=O)[C@H]1CC12CCN(C)CC2)c1[nH]c(-c2ccc(F)cc2)nc1C(N)=O .
Output: 0.9

###

Biological target: Protein deacetylase HDAC6 (Homo sapiens, UniProt Q9UBN7)
Sequence (Q9UBN7 whole entry): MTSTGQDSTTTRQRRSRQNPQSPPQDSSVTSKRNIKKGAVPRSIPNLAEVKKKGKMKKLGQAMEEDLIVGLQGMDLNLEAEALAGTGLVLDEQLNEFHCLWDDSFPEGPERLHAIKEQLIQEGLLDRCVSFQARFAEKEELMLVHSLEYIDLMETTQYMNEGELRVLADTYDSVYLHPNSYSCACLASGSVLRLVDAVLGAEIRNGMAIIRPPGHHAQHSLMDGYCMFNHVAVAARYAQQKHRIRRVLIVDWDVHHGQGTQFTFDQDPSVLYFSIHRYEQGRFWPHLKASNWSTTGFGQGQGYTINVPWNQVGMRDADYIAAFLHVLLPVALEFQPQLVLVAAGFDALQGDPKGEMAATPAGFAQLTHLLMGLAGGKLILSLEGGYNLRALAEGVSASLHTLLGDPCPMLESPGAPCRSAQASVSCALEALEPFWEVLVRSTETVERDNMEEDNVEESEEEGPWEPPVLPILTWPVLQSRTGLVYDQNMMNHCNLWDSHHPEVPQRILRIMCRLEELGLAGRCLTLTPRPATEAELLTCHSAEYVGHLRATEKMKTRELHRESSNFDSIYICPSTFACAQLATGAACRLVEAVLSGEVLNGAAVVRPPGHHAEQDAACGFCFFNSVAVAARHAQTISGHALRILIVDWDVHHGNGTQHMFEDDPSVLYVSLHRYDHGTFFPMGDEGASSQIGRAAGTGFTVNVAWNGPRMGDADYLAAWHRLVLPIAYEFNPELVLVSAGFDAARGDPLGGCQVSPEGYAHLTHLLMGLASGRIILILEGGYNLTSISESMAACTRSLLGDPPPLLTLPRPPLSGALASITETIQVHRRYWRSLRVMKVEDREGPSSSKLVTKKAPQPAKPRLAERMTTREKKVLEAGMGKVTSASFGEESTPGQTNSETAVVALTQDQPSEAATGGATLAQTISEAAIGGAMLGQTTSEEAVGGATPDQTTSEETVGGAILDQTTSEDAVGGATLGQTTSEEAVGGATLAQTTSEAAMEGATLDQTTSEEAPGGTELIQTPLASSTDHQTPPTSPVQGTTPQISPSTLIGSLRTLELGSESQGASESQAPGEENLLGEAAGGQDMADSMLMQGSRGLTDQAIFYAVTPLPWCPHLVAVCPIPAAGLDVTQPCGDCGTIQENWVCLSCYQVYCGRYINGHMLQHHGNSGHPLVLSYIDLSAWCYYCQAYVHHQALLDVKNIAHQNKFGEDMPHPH
Could you please report measured IC50 for the items listed next?
# value in µM; strip the unit string

Task: Please give the documented IC50 of CCC(=O)CCCCCC(NC(=O)c1cncs1)c1[nH]c(-c2ccccc2)nc1C(=O)N1CCOCC1 (stereo not drawn)
Output: 19

Task: Look up and state reported IC50 for CCC(=O)CCCCC[C@H](NC(=O)CN(C)C)c1[nH]c(-c2ccc(F)cc2)nc1C#N
Output: 43.3

Task: Specify measured IC50 for CCC(=O)CCCCC[C@H](NC(=O)[C@H]1CC12CCN(C)CC2)c1[nH]c(-c2ccc3nn(C)cc3c2)nc1C#N .
Output: 9.04
